Assay: gradient 5% acetonitrile 3 min, to 50% in 2 min, to 85% in 15 min, held 3 min, 100 µL/min
Conditions: column: Zorbax Extend-C18 2.1 x 50 mm; eluents: water / acetonitrile, 0.1% formic acid
OBSERVABLE: RP-LC retention time (s)
Output spec: scalar in s, unitless text.

// RP-LC retention time lookup, key: `Cc1ccc(-c2nc(CN3CCCC3=O)no2)cc1C` 841

// RP-LC retention time lookup, key: CC1CN(c2nc3c(c(=O)n(C)c(=O)n3C)n2Cc2cccc(F)c2)CC(C)O1 (stereo not given) 885

// RP-LC retention time lookup, key: `Cc1ccc2cccc(Oc3ncnc(N)c3[N+](=O)[O-])c2n1` 623

// RP-LC retention time lookup, key: `Cc1ccc(Cl)c(NC(=O)c2nc(C)oc2C)c1` 1140

// RP-LC retention time lookup, key: CCc1nc2cc(N3CCCC(C(=O)Nc4ccc(OC)cc4OC)C3)cnc2nc1CC (stereo not given) 934

// RP-LC retention time lookup, key: `Cc1noc(C)c1S(=O)(=O)N1CCC[C@H](n2c(=O)n(C)c3cccnc32)C1` 816

// RP-LC retention time lookup, key: CC(C)NCC(O)COc1ccc(Br)cc1Br (stereo not given) 586

// RP-LC retention time lookup, key: `CC(C)CCNC(=O)c1cn2ccccc2n1` 656

// RP-LC retention time lookup, key: `CCn1c(C2CCN(C(=O)Nc3cccc(Cl)c3)CC2)cc(=O)n2nccc12` 718

// RP-LC retention time lookup, key: `Cc1cc(N2CCN(C)CC2)nc2ccc(NC(=S)N3CCC(Cc4ccccc4)CC3)cc12` 636
